- Tested on: Escherichia coli TOP10;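 further: peptides expressed intracellularly from a pBAD plasmid library in pooled LB shake-flask culture, induced with 0.3% L-arabinose, DNA abundance read by NGS, three biological replicates, DESeq2 with apeglm shrinkage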
- run description: shrunken log2 fold change of peptide-encoding DNA abundance (4.5 h post-induction vs induction); higher = less antimicrobial activity (less host growth inhibition)
- test conditions: time post-induction: 4.5 h; library: site-saturation at positions 5, 18, 19, 20
// reported shrunken log2 fold change per item
The response must contain the number and no unit.

[
  {
    "biopolymer sequence": "RRIRRRPPRLPRPRPRPDQMPRP",
    "observed value": -0.0181
  },
  {
    "biopolymer sequence": "RRIRHRPPRLPRPRPRPIAFPRP",
    "observed value": -0.362
  },
  {
    "biopolymer sequence": "RRIRNRPPRLPRPRPRPDSKPRP",
    "observed value": -0.335
  }
]

Lab note: measured shrunken log2 fold change of `RRIRKRPPRLPRPRPRPVCQPRP` was 0.436
